Ref: patent US20240300968A1

target: NAMPT (Homo sapiens (Human)); test: Tm shift assay (thermal melting, SYPRO Orange); assay type: binding; settings: compound 100 μM; shift vs protein without ligand; mean of 3 independent repeats; read-out: NAMPT Tm shift
Sequence (P43490 whole entry, species assumed): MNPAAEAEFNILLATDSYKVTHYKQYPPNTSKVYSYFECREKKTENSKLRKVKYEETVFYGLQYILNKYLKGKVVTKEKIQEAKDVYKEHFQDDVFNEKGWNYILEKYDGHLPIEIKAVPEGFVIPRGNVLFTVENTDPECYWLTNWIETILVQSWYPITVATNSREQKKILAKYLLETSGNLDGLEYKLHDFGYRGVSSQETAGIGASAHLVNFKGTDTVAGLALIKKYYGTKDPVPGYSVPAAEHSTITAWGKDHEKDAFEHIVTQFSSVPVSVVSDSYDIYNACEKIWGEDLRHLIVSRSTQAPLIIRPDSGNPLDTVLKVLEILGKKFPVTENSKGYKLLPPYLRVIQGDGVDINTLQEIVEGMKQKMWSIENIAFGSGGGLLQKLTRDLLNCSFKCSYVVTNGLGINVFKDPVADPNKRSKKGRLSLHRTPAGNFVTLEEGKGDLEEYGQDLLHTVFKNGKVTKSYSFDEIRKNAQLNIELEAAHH
ATTRIBUTE_MEASURED: ΔTm at 100 µM (°C)
Write the answer as a number in °C, unit excluded.

Recorded results for 2 molecules are shown here.
O=C(NCc1cc(-c2ccc3cc(S(=O)(=O)O)cc(S(=O)(=O)O)c3c2)ccc1F)Nc1ccc(S(=O)(=O)N2CCCCC2)cc1
9.6
O=C(NCc1ccc(F)c(-c2ccc3cc(S(=O)(=O)O)cc(S(=O)(=O)O)c3c2)c1)Nc1ccc(S(=O)(=O)c2ccccc2)cc1
12.2

Okay, next one:
Task: NAMPT (Homo sapiens (Human)) / ΔTm at 100 µM / O=C(NCc1ccc(F)c(-c2ccc3cc(S(=O)(=O)O)cc(S(=O)(=O)O)c3c2)c1)Nc1ccc(S(=O)(=O)N2CC3CCC(C2)O3)cc1 : value?
Result: 9.7
